# Target: Thromboxane-A synthase (Homo sapiens, UniProt P24557)
# Sequence (P24557 whole entry): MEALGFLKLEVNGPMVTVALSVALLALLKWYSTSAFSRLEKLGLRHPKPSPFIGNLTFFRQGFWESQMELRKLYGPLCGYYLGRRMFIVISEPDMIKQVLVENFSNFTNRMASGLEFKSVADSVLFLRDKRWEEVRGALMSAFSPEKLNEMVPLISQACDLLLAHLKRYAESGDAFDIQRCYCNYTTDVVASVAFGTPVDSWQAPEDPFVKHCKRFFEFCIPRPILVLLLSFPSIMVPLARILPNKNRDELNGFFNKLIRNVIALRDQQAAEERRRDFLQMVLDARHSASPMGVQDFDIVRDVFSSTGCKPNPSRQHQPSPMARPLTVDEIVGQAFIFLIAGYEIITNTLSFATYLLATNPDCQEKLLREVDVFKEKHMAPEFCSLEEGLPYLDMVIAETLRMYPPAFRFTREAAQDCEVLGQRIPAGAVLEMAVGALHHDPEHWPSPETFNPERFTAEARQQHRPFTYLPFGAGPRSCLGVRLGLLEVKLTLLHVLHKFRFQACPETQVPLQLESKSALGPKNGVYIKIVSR
# Experimental Protocol: Inhibition of Thromboxane B2 formation in collagen-stimulated human platelets in platelet rich plasma.
Measured log10(IC50) accompanies every entry in the list below.
All values: base-10 log of IC50 in nM.

Past entries and their recorded results:
| Compound | log10(IC50) |
| --- | --- |
| CCOC(=O)CCC/C=C/CC(COCc1ccc(OC)cc1)Cn1ccnc1 (stereo not given) | 2.59 |
| CCOC(=O)/C=C/CCCOC(COCc1ccc(OC)cc1)Cn1ccnc1 (stereo not given) | 4.00 |
| COc1ccc(COCC(CCCCCCC(=O)O)Cn2ccnc2)cc1 (stereo not given) | 3.16 |

Item: COc1ccc(COCC(Cn2ccnc2)OCCC/C=C/C(=O)O)cc1 (stereo not given) | log10(IC50): 3.92

The measured log10(IC50) associated with COc1ccc(COCC(Cn2ccnc2)OCCCCC(=O)O)cc1 (stereo not given) reads 2.86

----------
# Target: Thromboxane-A synthase (Homo sapiens, UniProt P24557)
# Experimental Protocol: Inhibition of Thromboxane B2 formation in collagen-stimulated human platelets in platelet rich plasma.
API: label(entry) gives 1.0 if the entry's IC50 is strictly smaller than 600 nM; on equality or larger values it gives 0.0.

Below are worked cases with known answers.
| Molecule | Assigned Label |
| --- | --- |
| COc1ccc(COC[C@H](Cn2ccnc2)OCCCCC(C)(C)C(=O)O)cc1 | 1.0 |
| CCOC(=O)C(C)(C)CCCCOC(COCc1ccc(OC)cc1)Cn1ccnc1 (stereo unspecified) | 0.0 |
| CCOC(=O)CCCCOC(COCc1ccc(OC)cc1)Cn1ccnc1 (stereo unspecified) | 0.0 |
| CCOC(=O)CCCCCCC(COCc1ccc(OC)cc1)Cn1ccnc1 (stereo unspecified) | 0.0 |
| COc1ccc(COCC(Cn2ccnc2)OCCCCCCC(=O)O)cc1 (stereo unspecified) | 0.0 |

Lookup: Threshold test, IC50 < 600 nM: CCOC(=O)CCCCCOC(COCc1ccc(OC)cc1)Cn1ccnc1 (stereo unspecified)
Found: 1.0

Lookup: Please state whether IC50 is below 600 nM for CCOC(=O)CCCCCCOC(COCc1ccc(OC)cc1)Cn1ccnc1 (stereo unspecified)
Found: 0.0

Lookup: Say whether its IC50 is strictly beneath 600 nM. Entry: `COc1ccc(COC[C@@H](Cn2ccnc2)OCCCCC(C)(C)C(=O)O)cc1`
Found: 1.0

----------
# System: Cavia porcellus
# Experimental Protocol: Inhibition of Collagen-induced Thromboxane (TXB2) in guinea pig whole blood ex vivo by oral 30 mg/kg administration of test compound.
# Type: functional
Measured Metric: Thromboxane B2 (TxB2)

Example entries and their recorded answers appear below.
| Compound | Thromboxane B2 (TxB2) |
| --- | --- |
| O=C(O)c1ccc(OCCn2ccnc2)cc1 [DAZOXIBEN] | 674 pg 0.1ml-1 500x10^3 |
| COc1ccc(COCC(Cn2ccnc2)OCCC/C=C/C(=O)O)cc1 (stereo not drawn) | 1302 pg 0.1ml-1 500x10^3 |
| CCOC(=O)CCCCCOC(COCc1ccc(OC)cc1)Cn1ccnc1 (stereo not drawn) | 750 pg 0.1ml-1 500x10^3 |

# compound CCOC(=O)C(C)(C)CCCCOC(COCc1ccc(OC)cc1)Cn1ccnc1 (stereo not drawn) ; its Thromboxane B2 (TxB2) = 55 pg 0.1ml-1 500x10^3

Measured Thromboxane B2 (TxB2) of COc1ccc(COCC(CCCCCCC(=O)O)Cn2ccnc2)cc1 (stereo not drawn) : 1620 pg 0.1ml-1 500x10^3

# compound CCOC(=O)CCCCOC(COCc1ccc(OC)cc1)Cn1ccnc1 (stereo not drawn) ; its Thromboxane B2 (TxB2) = 2018 pg 0.1ml-1 500x10^3

So, COc1ccc(COCC(Cn2ccnc2)OCCCCCC(=O)O)cc1 (stereo not drawn) ? Its Thromboxane B2 (TxB2) was 130 pg 0.1ml-1 500x10^3

Measured Thromboxane B2 (TxB2), CCOC(=O)CCC/C=C/CC(COCc1ccc(OC)cc1)Cn1ccnc1 (stereo not drawn) : 1265 pg 0.1ml-1 500x10^3
